- System: BT-549 breast
- assay_overview: NCI-60 one-dose screen, 48 h (100 = growth as untreated, 0 = no growth, -100 = all killed)
- measurement_setup: 10 µM unless noted
Compounds without any hit were thinned out: in the full panel of roughly 83,000, 20% have a hit.
measured_attribute: growth (%)
Quick note: give the figure in %, leave out the unit.

>>> assay_result("CCOC(=O)c1c(Nc2ccccc2)nn2c(N)c(C#N)c(-c3ccccc3)nc12")
95
>>> assay_result("N#Cc1nc(-c2ccccc2)oc1S(=O)(=O)N1CCCCC1")
85.7

What measured growth is associated with COc1cccc(-c2nn(-c3ccccc3)cc2-c2ccnc(N3CCN(C(=O)c4ccccc4)CC3)c2)c1 on BT-549 breast?
91.4

What measured growth is associated with O=C1c2c(c3c4cccnc4[nH]c3c3ccc4ccccc4c23)C(=O)N1CCO on BT-549 breast?
86.8

What measured growth is associated with CN(C)c1ccc(/C=c2\sc3nc4ccccc4n3c2=O)cc1 on BT-549 breast?
118

----------
- Tested on: OVCAR-8 ovarian
- assay_overview: NCI-60 one-dose screen, 48 h
- measurement_setup: 10 µM unless noted
The panel holds about 83,000 compounds, 20% with a hit somewhere; the sample as a whole holds those more often. Activity calls are given as the source filed them. The calls were made as follows: active = growth percent below 10; inactive = the rest.
Choose one outcome from this list and give only that: active, inactive

>>> assigned_class("COc1ccc(-c2nc3ccc(-c4nnc(SCC(=O)Nc5ccc(C(=O)/C=C/c6ccccc6)cc5)o4)cc3[nH]2)cc1OC")
"inactive"
>>> assigned_class("N#Cc1nc(-c2ccccc2)oc1S(=O)(=O)N1CCCCC1")
"inactive"
>>> assigned_class("CC(=NNc1ncnc2ccccc12)c1ccc(S(C)(=O)=O)cc1")
"inactive"
>>> assigned_class("C=CCSc1ccc2c(c1)C(N1CCNCC1)=Nc1ccccc1O2")
"inactive"
>>> assigned_class("N#Cc1nc(-c2ccccc2)oc1N1CCC(CO)C1 (stereo unspecified)")
"inactive"
>>> assigned_class("CC(C)(C)Nc1nc2c(OCCc3ccccc3)cccn2c1-c1ccccc1Cl")
"active"
>>> assigned_class("COC(=O)C1CCCN(S(=O)(=O)/N=C2\\NC(=O)NC2=C(Cl)Cl)C1 (stereo unspecified)")
"inactive"
>>> assigned_class("COc1cc(/C=C/C(=O)c2cc(OC)c(OC)c(OC)c2)ccc1OCc1ccc(F)cc1")
"inactive"

Call for entry NS(=O)(=O)c1cccc(Nc2nc(SCC(=O)c3ccc(Br)cc3)nc3ccccc23)c1 :
inactive

Call for entry CN1CCN(Cc2ccc(NC(=O)c3cncc(C#Cc4cnc5ccc(N6CCSCC6)nn45)c3)cc2C(F)(F)F)CC1 :
active

Call for entry COc1ccc(/C=C/C(=O)c2ccc(NC(=O)CSc3nnc(-c4ccc5nc(-c6ccc(Cl)cc6)[nH]c5c4)o3)cc2)cc1 :
inactive

Call for entry COc1cc(-c2nc3ccc(-c4nnc(SCC(=O)Nc5ccc(C(=O)/C=C/c6ccc(Cl)cc6)cc5)o4)cc3[nH]2)cc(OC)c1OC :
inactive

----------
- Tested on: SF-295 CNS
- assay_overview: NCI-60 one-dose screen, 48 h (100 = growth as untreated, 0 = no growth, -100 = all killed)
- measurement_setup: 10 µM unless noted
About 83,000 compounds went through this panel and 20% of them were active in at least one assay; those are over-represented in the sample as a whole.
The following molecules are shown together with reported growth values.
Quick note: give the figure in %, leave out the unit.

Some solved cases for reference:
>>> assay_result("COc1ccc(COc2ccc(/C=C3/C(=O)Nc4cc(Cl)ccc43)cc2)cc1")
101
>>> assay_result("NS(=O)(=O)c1cccc(Nc2nc(SCC(=O)c3ccc(Cl)cc3)nc3ccccc23)c1")
71.8
>>> assay_result("COc1ccc(NC(=O)c2sc3nc(-c4cnccn4)cc(-c4cccs4)c3c2N)cc1")
84
>>> assay_result("O=C(CSc1nc2sc3c(c2c(=O)n1-c1ccc(Cl)cc1)CCCC3)N/N=C/c1ccc(F)cc1")
106
>>> assay_result("COc1cc(/C=C/C(=O)c2ccc(C)cc2)ccc1Oc1nc(NCCO)nc(N2CCOCC2)n1")
79.8

What measured growth is associated with OC1CCN(CCCOc2c3ccc(Cl)cc3nc3c2oc2ccc(Cl)cc23)CC1 on SF-295 CNS?
17.8

What measured growth is associated with Oc1c(Cl)cc(Cl)c2ccc(CN3CCCCC3)nc12 on SF-295 CNS?
26.5

What measured growth is associated with CCCCN1C(=O)/C(=c2\sc3n(c2=O)C2C(NN=3)N(CC)C(=O)N2CC)c2cc(Cl)ccc21 (stereo not given) on SF-295 CNS?
62.3

What measured growth is associated with CC(=O)c1ccc(Nc2nc(SC(C)C)nc(-c3ccccc3)c2C#N)cc1 on SF-295 CNS?
109

----------
- Tested on: EKVX NSCLC
- assay_overview: NCI-60 one-dose screen, 48 h (100 = growth as untreated, 0 = no growth, -100 = all killed)
- measurement_setup: 10 µM unless noted
The panel holds about 83,000 compounds, 20% with a hit somewhere; the sample as a whole holds those more often.
For each record, check the reported growth: if it is below 70% write Y, else write N.

Observe how each entry below is paired with its result.
>>> assigned_class("Cc1c(Nc2nnc(SCC(=O)Nc3sc4c(c3C#N)CCCC4)s2)c(=O)n(-c2ccccc2)n1C")
"N"
>>> assigned_class("COc1ccc(C(=O)/C=C/c2ccc(Oc3nc(NCCO)nc(N4CCOCC4)n3)c(OC)c2)cc1")
"N"
>>> assigned_class("COc1ccc(/C=N/NC(=O)c2[nH]c3ccc(Br)cc3c2-c2ccccc2)o1")
"Y"
>>> assigned_class("OC1CCN(CCCOc2c3ccccc3nc3c2oc2ccccc23)CC1")
"Y"
>>> assigned_class("COc1cc(/C=C/C(=O)c2cc(OC)c(OC)c(OC)c2)ccc1OCc1ccc(F)cc1")
"Y"

Identify whether the compound CCOC(=O)c1c(Nc2ccccc2)nn2c(N)c(C#N)c(-c3ccc(F)cc3)nc12 records growth below 70%.
N

Identify whether the compound CC(C)(C)OC(=O)N1C(=O)c2c(c3c4ccccc4[nH]c3c3ccc4ccccc4c23)C1=O records growth below 70%.
Y

Identify whether the compound CC(C)NC(=O)c1cc(-c2ccc(NC(=O)Nc3ccc(N4CCOCC4)c(C(F)(F)F)c3)cc2)nc2cccnc12 records growth below 70%.
N

Identify whether the compound O=C(N/N=C/c1ccco1)c1[nH]c2ccc(Br)cc2c1-c1ccccc1 records growth below 70%.
Y

Identify whether the compound COc1cc2nc(-c3ccc(C)cc3)cc(OCCCNCC3CCCO3)c2cc1OC (centres undefined) records growth below 70%.
N

Identify whether the compound C[C@@H]1CN(c2ccc3ncc(C#Cc4cncc(C(=O)Nc5ccc(CN6CCN(C)CC6)c(C(F)(F)F)c5)c4)n3n2)C[C@H](C)O1 records growth below 70%.
Y

----------
- System: MOLT-4 leukemia
- assay_overview: NCI-60 one-dose screen, 48 h (100 = growth as untreated, 0 = no growth, -100 = all killed)
- measurement_setup: 10 µM unless noted
This is part of a sample that, as a whole, favours compounds with a hit. Of some 83,000 tested, about 20% had one in any assay.
For each record, check the reported growth: if it is below 80% write Y, else write N.

Observe how each entry below is paired with its result.
>>> assigned_class("COc1cccc(COc2ccc(/C=C3/C(=O)Nc4cc(Cl)ccc43)cc2)c1")
"Y"
>>> assigned_class("COc1ccc(Cc2nn(CC(=O)N/N=C/c3ccc(Cl)cc3)c(=O)c3c(C)noc23)cc1")
"N"
>>> assigned_class("N/C(=N\\c1nc2c(Br)cccc2s1)C(Br)Br")
"Y"
>>> assigned_class("C#C[C@]1(O)CC[C@H]2[C@@H]3CC=C4c5sc(Nc6ccc(Cl)cn6)nc5CC[C@]4(C)[C@H]3CC[C@@]21C")
"Y"
>>> assigned_class("C#Cc1nc(C2=C(C)C(OC(C)=O)/C(=N/OC(C)=O)C2)cs1 (centres undefined)")
"Y"

Identify whether the compound OC1CCc2c(-c3ccc4ncnc(N5CCc6cc(F)c(Cl)cc65)c4c3)cncc21 (centres undefined) records growth below 80%.
Y

Identify whether the compound CC(C)(C)Nc1nc2c(OCCc3ccccc3)cccn2c1-c1ccccc1Cl records growth below 80%.
Y

Identify whether the compound CCOC(=O)c1c(Nc2ccccc2)nn2c(-c3ccco3)c(C#N)cnc12 records growth below 80%.
N

Identify whether the compound CCCCN1C(=O)/C(=c2\sc3n(c2=O)C2C(NN=3)N(CC)C(=O)N2CC)c2cc(Cl)ccc21 (centres undefined) records growth below 80%.
Y

----------
- Test system: NCI-H522 lung
- assay_overview: NCI-60 one-dose screen, 48 h (100 = growth as untreated, 0 = no growth, -100 = all killed)
- measurement_setup: 10 µM unless noted
- Procedure: Growth inhibition of the NCI-H522 human Non-Small Cell Lung tumor cell line is measured as a screen for anti-cancer activity. Cells are grown in 96 well plates and exposed to the test compound for 48 hours. Compounds are tested at a single concentration, which is 10^-5 M for most compounds. The reported endpoint is percent growth (GI% or GIPRCNT), where numbers from 0 - 100% represent growth inhibition, and numbers from -100% - 0 represent cell death. […]
The panel holds about 83,000 compounds, 20% with a hit somewhere; the sample as a whole holds those more often.
The following compounds are shown together with reported growth values.
Quick note: give the figure in %, leave out the unit.

>>> assay_result("N[C@@H](Cc1cn(-c2c3ccccc3nc3ccccc23)nn1)C(=O)O")
105

growth for NS(=O)(=O)c1cccc(Nc2nc(SCC(=O)c3ccc(Cl)cc3)nc3ccccc23)c1 ?
59.4

growth for CSc1ccc2c(c1)N(C(=O)/C(C#N)=C/c1c[nH]c3ccccc13)c1ccccc1S2 ?
5.48

growth for N/C(=N\c1nc2c(Br)cccc2s1)C(Br)Br ?
-75.1

growth for Nc1cc(-c2c[nH]c3ccc(F)cc23)nc2cc(-c3c[nH]c4ccc(F)cc34)nn12 ?
90.3
